- MEASUREMENT_TARGET: Sko1 (UniProt Q02100)
- Sequence: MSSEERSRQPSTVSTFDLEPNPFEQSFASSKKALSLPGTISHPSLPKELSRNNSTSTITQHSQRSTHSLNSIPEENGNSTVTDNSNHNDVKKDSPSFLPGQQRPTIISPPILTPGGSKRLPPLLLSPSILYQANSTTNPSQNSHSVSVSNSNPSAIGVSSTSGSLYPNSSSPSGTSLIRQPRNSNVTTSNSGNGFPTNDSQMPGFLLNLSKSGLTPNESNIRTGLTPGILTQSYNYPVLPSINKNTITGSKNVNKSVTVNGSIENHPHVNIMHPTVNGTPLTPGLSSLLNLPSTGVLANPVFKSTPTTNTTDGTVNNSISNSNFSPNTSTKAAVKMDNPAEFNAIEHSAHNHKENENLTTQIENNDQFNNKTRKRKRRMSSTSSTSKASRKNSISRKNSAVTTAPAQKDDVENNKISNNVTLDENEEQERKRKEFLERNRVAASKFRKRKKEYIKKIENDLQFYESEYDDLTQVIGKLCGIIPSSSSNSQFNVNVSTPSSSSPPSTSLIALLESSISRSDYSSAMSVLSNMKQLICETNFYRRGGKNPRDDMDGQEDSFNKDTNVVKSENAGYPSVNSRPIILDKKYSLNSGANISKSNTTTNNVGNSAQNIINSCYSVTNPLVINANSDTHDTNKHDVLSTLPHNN
- METHOD: PBM E-score (8-mer binding enrichment) (E-score (-0.5 to 0.5)); higher = stronger / more preferred TF binding
- MEASUREMENT_PARAMETERS: protein concentration: 200 nM; construct: GST-full length
In all, about 33,000 sequences were measured (“E-score (-0.5 to 0.5)”: median about -0.032, highest 2% from about 0.36 on). The entries come from a sample that favours the highest values as a whole.
Binned PBM E-score; ranges: lower band: < 0.003; central band: ≥ 0.003 and < 0.2; upper band: ≥ 0.2

SEQ | CATEGORY
ATGACCCG | lower band
CTACGCAG | upper band
TAACGCAA | upper band
GTACGGAA | lower band
ACTCTCTC | lower band
TACGTCGA | upper band
AGATGCAT | lower band
CAACAACC | lower band
ACGACGAC | central band
AGCTGATC | lower band
ACGACGGG | central band
CACGTCGA | upper band
AACGTCGA | upper band
GTCCGTAA | lower band
AAACCGAG | lower band
ACGACGCC | central band
ACGACGTG | upper band
CACGTCGG | central band
ACGACGGA | central band
ACGAGACG | central band
ATACGGAT | central band
CTACGCAA | upper band

###

- MEASUREMENT_TARGET: Sko1 (UniProt Q02100)
- Sequence: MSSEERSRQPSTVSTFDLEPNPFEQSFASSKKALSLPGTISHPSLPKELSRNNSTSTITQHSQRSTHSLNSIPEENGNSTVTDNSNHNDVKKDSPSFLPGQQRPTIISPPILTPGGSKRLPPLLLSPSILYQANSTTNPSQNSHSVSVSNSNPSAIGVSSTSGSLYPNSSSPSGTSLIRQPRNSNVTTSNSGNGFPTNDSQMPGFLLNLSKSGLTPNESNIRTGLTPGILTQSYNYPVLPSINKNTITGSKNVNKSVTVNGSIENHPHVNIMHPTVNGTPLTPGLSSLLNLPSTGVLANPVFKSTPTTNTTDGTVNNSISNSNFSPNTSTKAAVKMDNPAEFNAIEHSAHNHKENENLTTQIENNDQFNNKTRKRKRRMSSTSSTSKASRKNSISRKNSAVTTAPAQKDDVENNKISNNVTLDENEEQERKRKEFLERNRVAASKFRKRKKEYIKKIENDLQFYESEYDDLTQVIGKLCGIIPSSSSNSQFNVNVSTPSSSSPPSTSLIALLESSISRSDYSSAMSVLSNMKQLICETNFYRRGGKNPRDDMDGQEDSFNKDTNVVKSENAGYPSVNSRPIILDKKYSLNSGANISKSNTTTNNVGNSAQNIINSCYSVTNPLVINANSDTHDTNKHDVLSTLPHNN
- METHOD: PBM E-score (8-mer binding enrichment) (E-score (-0.5 to 0.5)); higher = stronger / more preferred TF binding
- MEASUREMENT_PARAMETERS: protein concentration: 200 nM; construct: GST-full length
Whole data set: some 33,000 sequences, median “E-score (-0.5 to 0.5)” near -0.032, cut for the highest 2% near 0.36. The sample holds the highest values, similar sequences and a random draw of the others, so the mix is not that of the screen.
# PBM E-score annotations

SEQ | PBM E-score
GTACATAA | 0.306
ACCAGAGT | -0.256
AATATGAT | 0.254
ACGTGGAA | 0.311
ACGTGCAC | 0.355
CAATGATC | 0.0721
ATGATCTG | 0.151
AAAGACGT | 0.448
ACCGACGT | 0.376
ACGTTAAG | 0.325
GCGCGTCC | -0.15
AGGTGGTG | -0.0259
CCGTGACC | -0.28
AGACGTAT | 0.441
ACGCAGAC | 0.0967
GTATGCAA | 0.177
CAACATCA | 0.294
GTACATTA | 0.295
CAATGATG | 0.381
CGTGCAAG | 0.0462
CGACATCA | 0.355
ATACATCA | 0.382
AGGACGCC | -0.21
GGACATAA | 0.0688
GCGCCACC | -0.291
CAATGATA | 0.254
TTACATAA | 0.407
ACGTGGCT | 0.321
AGACGTAG | 0.382
AACGACGT | 0.411
CCGGACTC | -0.16
CGGCGTGA | -0.0945
AGTCGTAT | 0.0845
ACGTGCCA | 0.396
CCTACCGA | -0.168
GCGATGAC | 0.374
CGTGAATC | 0.13
ATGTGAGC | -0.00412
AGCCGTAT | -0.0778
ATTTAGTA | 0.25
GCACCGCC | -0.218
AAGAGCAT | 0.0596
ACGTGGGC | 0.347
GCAAACGA | 0.136
GTACATGA | 0.184
AAACATCA | 0.189
AACGTTCT | 0.167
ACGGCCCA | -0.317
CTACATAA | 0.194
CTAACCAG | -0.0782
CTACATCA | 0.375
GTGGCGCA | 0.0382
GTACATCA | 0.366
ACGTGACC | 0.292
CAAGGTCA | -0.144
ATGTTCTA | 0.0474
ACGATGAC | 0.336
ACGTGCAT | 0.396
CCGCGTAA | 0.318
GACGTTTA | 0.386
ACCGACGC | 0.0727
ACGTTAGG | 0.244
CACGTTTA | 0.321
AGGACGTC | 0.363
TAACATCA | 0.367
GCGATGAA | -0.0296
ATACATCC | 0.0616
ATTCAGCA | 0.00168
CATCGCCG | -0.137
ACGTGACA | 0.394
ACGTGGAC | 0.33
AGACGTTG | 0.111
ATACCTGC | -0.102
CCGTGACA | -0.14
AAAACCAG | -0.0997
ACGTGAAG | 0.326
CACGTTCA | 0.171
ATGGCTCC | -0.249
ACGTGACG | 0.462
ACGTGGTG | 0.376
GATATGAC | 0.326
AGACGTAC | 0.395
GCGACGCC | -0.0621
CCGCTGAG | -0.29
AACGTTCA | 0.0648
ACGTGGTC | 0.364
